Just for reference, patent US20110297235A1 is where these values come from.

For each record, write down the corresponding glass transition temperature Tg.
- Procedure text: Glass transition temperature Tg and morphology M by means of DSC
- Format: physicochemical
Numbers only, in °C.

CCOc1ccc(N(c2ccc(C3=CCC(N(c4ccc(OC)cc4)c4ccc(-c5ccc(N(c6ccc(OC)cc6)c6ccc(-c7ccc(N(c8ccc(OCC)cc8)c8cccc9ccccc89)cc7)cc6)cc5)cc4)C=C3)cc2)c2cccc3ccccc23)cc1 (stereo not shown) :: 143
CCCCC(CC)COc1ccc(N(c2ccc(-c3ccc(N(c4ccc(OC)cc4)c4ccc(OC)cc4)cc3)cc2)c2ccc(-c3ccc(N(c4ccc(OCC(CC)CCCC)cc4)c4ccc(-c5ccc(N(c6ccc(OC)cc6)c6ccc(OC)cc6)cc5)cc4)cc3)cc2)cc1 (stereo not shown) :: 65
COc1ccc(N(c2ccc(OC)cc2)c2ccc(-c3ccc(N(c4ccc(-c5ccc(N(c6ccc(-c7ccc(N(c8ccc(OC)cc8)c8ccc(OC)cc8)cc7)cc6)c6ccc(C(C)(C)C)cc6)cc5)cc4)c4ccc(C(C)(C)C)cc4)cc3)cc2)cc1 :: 154

# ---- query compound ----
Summary for this compound, `COc1ccc(N(c2ccc(OC)cc2)c2ccc(-c3ccc(N(c4ccc(OC)cc4)c4ccc5c(c4)C(C)(C)c4cc(N(c6ccc(OC)cc6)c6ccc(-c7ccc(N(c8ccc(OC)cc8)c8ccc(OC)cc8)cc7)cc6)ccc4-5)cc3)cc2)cc1` : glass transition temperature Tg is 137
